# Test system: SNB-19 CNS
# Assay Name: NCI-60 one-dose screen, 48 h
# Experimental Parameters: 10 µM unless noted
Compounds without any hit were thinned out: in the full panel of roughly 83,000, 20% have a hit. The source made the active and inactive calls. The calls were made as follows: active = growth percent below 10; inactive = the rest.
I would appreciate it if you answered using one of these outcomes: t (active), f (inactive)

The examples below pair each entry with its known result.
COc1ccc(C2C3=C(COC3=O)N(CCO)c3cc4c(cc32)OCCO4)cc1OC (stereo not drawn): f
Cn1cc(-c2csc(-c3cn(C(=O)OC(C)(C)C)c4ccccc34)n2)c2ccnc(Cl)c21: f

Hey, what did the test say about Cn1cc(-c2nonc2-c2c[nH]c3ccc(F)cc23)c2cc(Br)ccc21 ?
f

Hey, what did the test say about C=CC1(C)C(O[Si](C)(C)C(C)(C)C)CC2C3OC(=O)NC31c1cccc3c1[C@H](C(=O)N3C)C2(C)C (stereo partly drawn) ?
f

Hey, what did the test say about COC(c1ccc2ccccc2c1)C(C)C(F)F (stereo not drawn) ?
f

----------
# System: TK-10 renal
# Assay Name: NCI-60 one-dose screen, 48 h (100 = growth as untreated, 0 = no growth, -100 = all killed)
# Experimental Parameters: 10 µM unless noted
Compounds without any hit were thinned out: in the full panel of roughly 83,000, 20% have a hit. The source made the active and inactive calls. How the source made its calls: active means growth percent below 10; inactive means the rest.
# growth listing for each entry below

Cc1nn(-c2ccccc2)c(/N=C/N(C)C)c1/C=C/C(=O)c1ccc(Cl)cc1: 104% (inactive)
O=C(CCCCNC(=O)c1cc(=O)c(O)co1)Nc1ccccc1: 98.3% (inactive)
NC(=O)c1ccc(NC(=O)c2oc3ccccc3c2-c2cnn(-c3ccccc3)c2)cc1: 44.5% [50 µM] (inactive)

Identify growth associated with the compound C[C@H]1[C@H](C)CC[C@]2(C(=O)O)CC[C@]3(C)C(=CC[C@@H]4[C@@]5(C)C[C@@H](Cc6cn([C@@H]7O[C@H](CO)[C@@H](O)[C@H](O)[C@H]7O)nn6)[C@H](O)C(C)(C)[C@@H]5CC[C@]43C)[C@H]12
89.2% (inactive)

Identify growth associated with the compound COc1cc(N2C(=O)[C@H](c3ccccc3)C2c2ccc(SC)cc2)cc(OC)c1OC (some centres undefined)
50.9% (inactive)

----------
# System: RXF 393 renal
# Assay Name: NCI-60 one-dose screen, 48 h (100 = growth as untreated, 0 = no growth, -100 = all killed)
# Experimental Parameters: 10 µM unless noted
This is part of a sample that, as a whole, favours compounds with a hit. Of some 83,000 tested, about 20% had one in any assay.
Mark label 1 for growth under 20%, label 0 if at or over.

The examples below pair each entry with its known result.
COc1ccc2cc(-c3ccc(-c4ccc(C(=N)N)s4)s3)ccc2c1: label 1
O=C(N/N=C/c1ccc(Cl)cc1Cl)c1ccc2nc(-c3ccc(Cl)cc3)[nH]c2c1: label 1
O=c1ccc2nc(C(F)(F)F)nn(-c3ccccc3)c-2c1: label 1
O=C1c2cc3c(cc2-c2c1c1ccc(Cl)cc1c(=O)n2C[C@H](O)CO)OCO3: label 1
Nc1ncnc2c1c(-c1ccc(Oc3ccccc3)cc1)nn2CC1SSCC1O (stereo unspecified): label 1
CCN(CC)c1ccc(/C=C\c2cc(C)c3cc(C)ccc3n2)cc1: label 1

For this molecule, is growth lower than 20%? O=C(Nc1ccccc1O)c1ccccc1Nc1ccnc(C(F)(F)F)c1
label 0

For this molecule, is growth lower than 20%? Cc1ccccc1OCC(O)COc1ccccc1C
label 0

The values you see were collected from PubChem BioAssay (NCI).
